Test system: LATS2;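 note: KINOMEscan kinase panel screen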
Recorded conditions: concentration: 1 μM,replicates: in singlicate; n = 1
Note to self: use class 1 only for %Inh readings below 30%; a reading exactly at 30% still gets class 0.

INPUT: Strictly below 30%: is that where %Inh of COc1cccc(CNC(=O)NC2CCN(c3ccnc(Nc4cc(OC)c(OC)c(OC)c4)n3)C2)c1 (centres unmarked) sits?
OUTPUT: class 1

INPUT: Strictly below 30%: is that where %Inh of Cn1ccc2ncnc(Oc3ccc(NC(=O)Nc4cnn(C(C)(C)C)c4)c(Cl)c3)c21 sits?
OUTPUT: class 1

INPUT: Strictly below 30%: is that where %Inh of COc1cc2ncn(-c3cc(OCC4CCCCC4)c(C(N)=O)s3)c2cc1OC sits?
OUTPUT: class 1

INPUT: Strictly below 30%: is that where %Inh of CN(c1ccccc1CNc1nc(Nc2ccc3c(c2)CC(=O)N3)ncc1C(F)(F)F)S(C)(=O)=O sits?
OUTPUT: class 0

INPUT: Strictly below 30%: is that where %Inh of O=C1NCCc2[nH]c(-c3ccncc3)cc21 sits?
OUTPUT: class 0
